This collection of values is drawn from patent US20210275506A1.

protocol_summary: Solubility of the APIs in ethanol and water vehicles
Assay type: physicochemical
conditions_used: water and ethanol vehicles, aqueous with cosolvent or surfactant or cyclodextrin, 30% ethanol; read-out: Solubility, 10 mg/ml API solution
Some compounds, each annotated with its measured solubility.

Record C=CC[C@@H]1/C=C(\C)C[C@H](C)C[C@H](OC)[C@H]2O[C@@](O)(C(=O)C(=O)N3CCCC[C@H]3C(=O)O[C@H](/C(C)=C/[C@@H]3CC[C@@H](O)[C@H](OC)C3)[C@H](C)[C@@H](O)CC1=O)[C@H](C)C[C@@H]2OC . Reported solubility: > 10000 µg/mL

Record Cc1ccc(-c2cc(C(F)(F)F)nn2-c2ccc(S(N)(=O)=O)cc2)cc1 . Reported solubility: < 10000 µg/mL

Record O=C(O)Cc1ccccc1Nc1c(Cl)cccc1Cl . Reported solubility: > 10000 µg/mL

Record CO[C@H]1C[C@@H]2CC[C@@H](C)[C@@](O)(O2)C(=O)C(=O)N2CCCC[C@H]2C(=O)O[C@H]([C@H](C)C[C@@H]2CC[C@@H](O)[C@H](OC)C2)CC(=O)[C@H](C)/C=C(\C)[C@@H](O)[C@@H](OC)C(=O)[C@H](C)C[C@H](C)/C=C/C=C/C=C/1C . Reported solubility: > 10000 µg/mL

###

protocol_summary: Solubility of the APIs in ethanol and water vehicles
Format: physicochemical
conditions_used: water and ethanol vehicles, aqueous with cosolvent or surfactant or cyclodextrin, 5% ethanol; read-out: Solubility, 10 mg/ml API solution
readout_kind: solubility

>>> result("Cc1ccc(-c2cc(C(F)(F)F)nn2-c2ccc(S(N)(=O)=O)cc2)cc1 [Celecoxib]")
"< 10000 µg/mL"
>>> result("C=CC[C@@H]1/C=C(\\C)C[C@H](C)C[C@H](OC)[C@H]2O[C@@](O)(C(=O)C(=O)N3CCCC[C@H]3C(=O)O[C@H](/C(C)=C/[C@@H]3CC[C@@H](O)[C@H](OC)C3)[C@H](C)[C@@H](O)CC1=O)[C@H](C)C[C@@H]2OC [Tacrolimus]")
"< 10000 µg/mL"

// next entry
Record CO[C@H]1C[C@@H]2CC[C@@H](C)[C@@](O)(O2)C(=O)C(=O)N2CCCC[C@H]2C(=O)O[C@H]([C@H](C)C[C@@H]2CC[C@@H](O)[C@H](OC)C2)CC(=O)[C@H](C)/C=C(\C)[C@@H](O)[C@@H](OC)C(=O)[C@H](C)C[C@H](C)/C=C/C=C/C=C/1C [Rapamycin] . Reported solubility: < 10000 µg/mL

###

protocol_summary: Solubility of the APIs in ethanol and water vehicles
Type: physicochemical
conditions_used: water and ethanol vehicles, aqueous with cosolvent or surfactant or cyclodextrin, 10% ethanol; read-out: Solubility, 10 mg/ml API solution
readout_kind: solubility

These solved cases illustrate the format of a correct answer.
>>> result("Cc1ccc(-c2cc(C(F)(F)F)nn2-c2ccc(S(N)(=O)=O)cc2)cc1")
"< 10 mg/mL"
>>> result("O=C(O)Cc1ccccc1Nc1c(Cl)cccc1Cl")
"> 10 mg/mL"

// next entry
Record CO[C@H]1C[C@@H]2CC[C@@H](C)[C@@](O)(O2)C(=O)C(=O)N2CCCC[C@H]2C(=O)O[C@H]([C@H](C)C[C@@H]2CC[C@@H](O)[C@H](OC)C2)CC(=O)[C@H](C)/C=C(\C)[C@@H](O)[C@@H](OC)C(=O)[C@H](C)C[C@H](C)/C=C/C=C/C=C/1C . Reported solubility: < 10 mg/mL
